# Test system: Smad1/5/8 signaling pathway
# assay-explanation: Growth factor receptor activation: quantification of western blots of phospho-Smad1/5/8
# Assay type: cell-based
# condition-summary: human osteosarcoma cells MG63; 400 ng/mL GFR-binding compound; Table 4
Assignment: determine reported p-Smad1/5/8 (%) for the given sequences.
Numbers only, in %.

I'm hoping you can list p-Smad1/5/8 (%) for every sequence here, please.
1. TPTKMSPINMLYFNEKNNIIYGKIPGM (Non-cyclic GFR-binding peptide) [SEQ ID NO: 94]
2. VPEKMSSLSILFFDENKNAALKVYPNMTVE (Non-cyclic GFR-binding peptide) [SEQ ID NO: 92]
3. VPTKLSPISILYIDDMGVPTYKQYEEGMSVAE (Non-cyclic GFR-binding peptide) [SEQ ID NO: 67]
4. VSQDLSAISTLYLKIVRKEPLKNYQEMVEE (Non-cyclic GFR-binding peptide) [SEQ ID NO: 98]
5. VPARLSPISILYIDAANNVVYKQYEDMVKS (Non-cyclic GFR-binding peptide) [SEQ ID NO: 93]

1. 41
2. 52
3. 40
4. 39
5. 44
